Origin of the recorded values: patent US9375005B2

Measured Eff. %, listed per entry for reference.
- Test system: Puccinia recondita
- protocol_details: In vivo preventive test on Puccinia recondita (brown rust on wheat)
- conditions_used: dose 500 ppm; wheat plants sprayed 24 h before contamination; grading 12 days after contamination
Number only, in %; omit the unit.

Guide cases for Eff. %, answers given:
Cn1nc(C(F)F)c(C(=O)Nc2cccc3c2CC2(CCCC2)C3)c1Cl; 100
Cn1nc(C(F)F)c(C(=S)Nc2cccc3c2CCC3C(C)(C)C)c1Cl (centres unmarked); 100
CCON=C1CCc2c(NC(=O)c3c(C(F)F)nn(C)c3Cl)cccc21; 94
CC(C)CC1CCc2c(NC(=O)c3c(C(F)F)nn(C)c3Cl)cccc21 (centres unmarked) [Example 40]; 100
CC(C)C1Cc2cccc(NC(=O)c3c(C(F)F)nn(C)c3Cl)c2C1C (centres unmarked) [Example 48]; 100
CC1CC(C(C)C)c2cccc(NC(=O)c3c(C(F)F)nn(C)c3F)c21 (centres unmarked); 97

Recorded Eff. % of CC1CC(CC(C)(C)C)c2cccc(NC(=O)c3c(C(F)F)nn(C)c3Cl)c21 (centres unmarked) , please. 98

Item: CCC1(C)CCc2c(NC(=O)c3c(C(F)F)nn(C)c3Cl)cccc21 (single isomer, unassigned) [Example 53] 100

###

Measured logP, listed per entry for reference.
- protocol_details: Measurement of log P values by HPLC on reversed phase columns (EEC directive 79/831 Annex V.A8)
- Type: physicochemical
- conditions_used: method [a]: LC-MS at pH 2.7, 0.1% formic acid in water / acetonitrile, gradient 10% to 95% acetonitrile

Guide cases for logP, answers given:
CC1Cc2c(N)cccc2C1C (stereo not drawn); 1.44[a]
CCCON=C1CCc2c(Br)cccc21 (single isomer, unassigned) [III-b-7]; 5.14[a]
CC1CC(C(C)C)c2cccc(N)c21 (stereo not drawn) [III-a-18]; 2.73[a]
CC1CC(C)(C)c2c(Br)ccc(N)c21 (stereo not drawn); 3.85[a];
CCCON=C1CC(C)c2c(N)cccc21.Cl (racemic); 2.78[a]

Recorded logP of CC(C)CC1CC(C)c2c(N)cccc21 (stereo not drawn) , please. 3.42[a]

###

- System: Sphaerotheca fuliginea
- protocol_details: In vivo preventive test on Sphaerotheca fuliginea (powdery mildew on cucurbits)
- conditions_used: dose 100 ppm; gherkin plants sprayed 24 h before contamination; grading 12 days after contamination
experimental_endpoint: Eff. % (%)
Number only, in %; omit the unit.

Guide cases for Eff. %, answers given:
CC(C)C1Cc2c(NC(=S)c3c(C(F)F)nn(C)c3Cl)cccc2C1(C)C (centres unmarked) [Example 92]; 100
CC(C)C1Cc2c(NC(=S)c3c(C(F)F)nn(C)c3F)cccc2C1(C)C (centres unmarked) [Example 95]; 100
CCC1Cc2c(NC(=S)c3c(C(F)F)nn(C)c3F)cccc2C1(C)C (centres unmarked) [Example 106]; 89
CCC1Cc2c(NC(=S)c3c(C(F)F)nn(C)c3Cl)cccc2C1(C)C (centres unmarked) [Example 105]; 94

Lab note: next compound to report on.
Missing value: Eff. %, Sphaerotheca fuliginea, entry CC1CC2(CCCCC2)c2cccc(NC(=S)c3c(C(F)F)nn(C)c3F)c21 (centres unmarked) [Example 104] . Fill in? 100

###

- protocol_details: Measurement of log P values by HPLC on reversed phase columns (EEC directive 79/831 Annex V.A8)
- Assay type: physicochemical
- conditions_used: method [a]: LC-MS at pH 2.7, 0.1% formic acid in water / acetonitrile, gradient 10% to 95% acetonitrile
experimental_endpoint: logP

Guide cases for logP, answers given:
CC1CC(C)(C)c2c(Cl)ccc(N)c21 (stereo not drawn) [III-a-5]; 3.68[a]
CC(C)(C)C1CCc2c(N)cccc21 (racemic) [III-a-35]; 2.4[a]
CC(C)C1Cc2c(N)cccc2C1C (stereo not drawn) [III-a-11]; 2.34[a]
CCON=C1CCc2c(Br)cccc21 (single isomer, unassigned) [III-b-10]; 4.49[a]
CCCCON=C1CCc2c(Br)cccc21 [III-b-8]; 5.71[a]

Lab note: next compound to report on.
Recorded logP of CCC1Cc2c(Br)cccc2C1(C)C (stereo not drawn) [III-b-29] , please. 6.28[a]

###

- protocol_details: Measurement of log P values by HPLC on reversed phase columns (EEC directive 79/831 Annex V.A8)
- Type: physicochemical
- conditions_used: method marked [a]
experimental_endpoint: logP

CC1CC(C(C)C)c2cccc(NC(=O)c3c(C(F)F)nn(C)c3F)c21 (stereo not drawn); 4.19[a]
CCC1(CC)Cc2c(NC(=O)c3c(C(F)F)nn(C)c3Cl)cccc2C1C (stereo not drawn); 4.92[a]
CC1CCc2c(NC(=O)c3c(C(F)F)nn(C)c3Cl)cccc21 (stereo not drawn); 3.52[a]
CC1c2cccc(NC(=O)c3c(C(F)F)nn(C)c3F)c2CC12CCCC2 (stereo not drawn); 4.39[a]
CCC1(CC)CC(C)c2c(NC(=O)c3c(C(F)F)nn(C)c3F)cccc21 (stereo not drawn); 4.56[a]

Recorded logP of CC1CC(C)(C)c2c(C3CC3)ccc(NC(=O)c3c(C(F)F)nn(C)c3F)c21 (stereo not drawn) , please. 4.35[a];

Item: "Cn1nc(C(F)F)c(C(=O)Nc2cccc3c2CCC32CC2)c1F" 3.33[a]

Item: CC(C)C1Cc2c(NC(=S)c3c(C(F)F)nn(C)c3Cl)cccc2C1(C)C (stereo not drawn) 4.9[a]

Item: CC1CCc2cccc(NC(=O)c3c(C(F)F)nn(C)c3Cl)c21 (stereo not drawn) 3.44[a]

Item: CCC1Cc2c(NC(=O)c3c(C(F)F)nn(C)c3Cl)cccc2C1(C)C (stereo not drawn) 4.61[a]

Item: Cn1nc(C(F)F)c(C(=O)Nc2cccc3c2CCC3C(C)(C)C)c1Cl (stereo not drawn) 4.64[a]

Item: CC1CC(C(C)C)c2cccc(NC(=O)c3c(C(F)F)nn(C)c3Cl)c21 (stereo not drawn) 4.46[a]

Item: "CON=C1CCc2c(NC(=O)c3c(C(F)F)nn(C)c3Cl)cccc21" 2.82[a]

###

Measured logP, listed per entry for reference.
- protocol_details: Measurement of log P values by HPLC on reversed phase columns (EEC directive 79/831 Annex V.A8)
- Format: physicochemical
- conditions_used: method marked [b]

Guide cases for logP, answers given:
CC1CC(C)(C)c2c(C3CC3)ccc(NC(=O)c3c(C(F)F)nn(C)c3Cl)c21 (stereo not drawn) [Example 16]; 4.57[b]
CC1CC(C)(C)c2c(Cl)ccc(NC(=O)c3c(C(F)F)nn(C)c3Cl)c21 (stereo not drawn) [Example 12]; 4.53[b]
CC1CC(C)(C)c2c(Br)ccc(NC(=S)c3c(C(F)F)nn(C)c3F)c21 (stereo not drawn) [Example 55]; 4.49[b]

Recorded logP of CC1CC(C)(C)c2c(I)ccc(NC(=O)c3c(C(F)F)nn(C)c3Cl)c21 (stereo not drawn) [Example 20] , please. 4.89[b]

Item: CC1CC(C)(C)c2c(Br)ccc(NC(=O)c3c(C(F)F)nn(C)c3F)c21 (stereo not drawn) [Example 38] 4.35[b]

Item: Cc1ccc(NC(=O)c2c(C(F)F)nn(C)c2Cl)c2c1C(C)(C)CC2C (stereo not drawn) [Example 18] 4.2[b]

Item: CC1CC(C)(C)c2c(C3CC3)ccc(NC(=O)c3c(C(F)F)nn(C)c3F)c21 (stereo not drawn) [Example 17] 4.28[b]

Item: CC1CC(C)(C)c2c(Br)ccc(NC(=O)c3c(C(F)F)nn(C)c3Cl)c21 (stereo not drawn) [Example 36] 4.68[b]

Item: Cc1ccc(NC(=O)c2c(C(F)F)nn(C)c2F)c2c1C(C)(C)CC2C (stereo not drawn) [Example 19] 3.92[b]

###

- protocol_details: Measurement of log P values by HPLC on reversed phase columns (EEC directive 79/831 Annex V.A8)
- Assay type: physicochemical
- conditions_used: method marked [a]
Measured logP, listed per entry for reference.

Recorded logP of CCC1(CC)CC(C)c2c(NC(=O)c3c(C(F)F)nn(C)c3Br)cccc21 (centres unmarked) , please. 4.82[a]

Item: CC1CC2(CC2)c2cccc(NC(=O)c3c(C(F)F)nn(C)c3F)c21 (centres unmarked) 3.55[a]

Item: CCON=C1CC(C)c2c(NC(=O)c3c(C(F)F)nn(C)c3Cl)cccc21 (centres unmarked) 3.42[a]

Item: CC(C)C1Cc2c(NC(=O)c3c(C(F)F)nn(C)c3Br)cccc2C1(C)C (centres unmarked) 4.92[a]

Item: CC1CC2(CCCCC2)c2cccc(NC(=O)c3c(C(F)F)nn(C)c3F)c21 (centres unmarked) 4.73[a]

###

Measured logP, listed per entry for reference.
- protocol_details: Measurement of log P values by HPLC on reversed phase columns (EEC directive 79/831 Annex V.A8)
- Assay type: physicochemical
- conditions_used: method marked [a]

Recorded logP of Cn1nc(C(F)F)c(C(=O)Nc2cccc3c2C(C)(C)CC3)c1Cl [Example 89] , please. 3.53[a]

Item: CC1CC(C)(C)c2c(Br)ccc(NC(=O)c3c(C(F)F)nn(C)c3Cl)c21 (stereo not drawn) [Example 36] 4.77[a];
